# target: Protein Mdm4 (Homo sapiens) + E3 ubiquitin-protein ligase Mdm2 (Homo sapiens) (UniProt O15151+Q00987)
# Sequence (O15151 whole entry, looked up): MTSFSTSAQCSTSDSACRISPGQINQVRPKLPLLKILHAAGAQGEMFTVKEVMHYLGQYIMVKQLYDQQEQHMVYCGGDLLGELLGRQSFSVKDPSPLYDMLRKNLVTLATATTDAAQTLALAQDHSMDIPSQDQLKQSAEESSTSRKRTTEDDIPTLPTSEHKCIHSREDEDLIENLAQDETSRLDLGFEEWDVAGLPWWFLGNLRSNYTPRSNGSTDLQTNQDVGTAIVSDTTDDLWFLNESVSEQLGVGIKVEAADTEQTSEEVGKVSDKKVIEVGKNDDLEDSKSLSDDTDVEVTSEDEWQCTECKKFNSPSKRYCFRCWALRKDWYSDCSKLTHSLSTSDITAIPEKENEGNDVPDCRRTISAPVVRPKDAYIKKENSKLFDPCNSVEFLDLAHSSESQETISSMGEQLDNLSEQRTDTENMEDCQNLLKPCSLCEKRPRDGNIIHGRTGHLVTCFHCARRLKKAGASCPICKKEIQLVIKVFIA
# Sequence (Q00987 whole entry, looked up): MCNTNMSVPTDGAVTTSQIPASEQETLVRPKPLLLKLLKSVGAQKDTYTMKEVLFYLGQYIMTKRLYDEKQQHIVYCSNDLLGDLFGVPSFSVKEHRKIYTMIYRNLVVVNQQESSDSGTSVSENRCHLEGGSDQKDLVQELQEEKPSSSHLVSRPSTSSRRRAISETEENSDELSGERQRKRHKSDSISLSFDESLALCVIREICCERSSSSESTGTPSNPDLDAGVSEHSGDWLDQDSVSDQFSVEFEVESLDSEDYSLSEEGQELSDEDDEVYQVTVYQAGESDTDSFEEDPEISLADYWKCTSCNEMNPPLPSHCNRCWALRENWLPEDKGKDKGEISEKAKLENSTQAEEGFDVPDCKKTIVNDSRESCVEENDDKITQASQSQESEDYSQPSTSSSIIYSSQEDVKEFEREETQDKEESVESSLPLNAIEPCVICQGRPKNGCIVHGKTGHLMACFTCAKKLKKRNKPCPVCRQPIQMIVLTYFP
# test-summary: inhibitors of human Mdm2-MdmX association, primary screen, cell-based, luminescence, split luciferase, SaOS-2, uHTS (AID 485346)
# assay-context: SaOS-2 split-luciferase Mdm2/MdmX complementation, at 8 µM
Out of some 330,000 compounds screened, about 10,000 (3%) were called active.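 How the source made its calls: active means inhibition of at least 50% at 8 µM in the primary screen; inactive means the rest.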 For the sample, actives were picked, then their nearest neighbours and some compounds at random.
Classes used: y (active), n (inactive)

| compound | label-value |
| --- | --- |
| COc1ccc(NC(=O)c2sc3nc(C)nc(N4CCN(c5ccccn5)CC4)c3c2C)c(OC)c1 | n |
| COC(=O)C1=C(Nc2ccc(OC)cc2)C=C(C)C(C(=O)OC)C1c1ccc(C)cc1 (stereo unspecified) | n |
| O=C(COC(=O)CCCN1C(=O)c2cccc3cccc(c23)C1=O)NC1CCS(=O)(=O)C1 (stereo unspecified) | n |
| COC(=O)C1=C(Nc2ccc(C)cc2)C=C(C)C(C(=O)OC)C1c1ccc(F)cc1 (stereo unspecified) | y |
| O=c1c2c(ncn1Cc1ccccc1)nc1n2CCC1 | n |
| Cc1nc(N2CCN(c3ccccn3)CC2)c2c(C)c(C(=O)Nc3ccc(F)cc3)sc2n1 | n |
| CC(C)c1cc(C(=O)N/N=C/C(Br)=C/c2ccccc2)n[nH]1 | y |
| CC(C)c1cc(C(=O)O)n[nH]1 | n |
| CN(C)/C=C/c1c(C#N)c(=O)ncn1Cc1ccccc1 | n |
| FC(F)(F)c1nnc2ccc(N3CCN(c4ccccc4)CC3)nn12 | n |
| FC(F)(F)c1nnc2c3ccccc3c(Cl)nn12 | y |

* * *

Recorded inhibition values for a group of molecules are listed next.
# target: Protein Mdm4 (Homo sapiens) + E3 ubiquitin-protein ligase Mdm2 (Homo sapiens) (UniProt O15151+Q00987)
# test-summary: inhibitors of human Mdm2-MdmX association, primary screen, cell-based, luminescence, split luciferase, SaOS-2, uHTS (AID 485346)
# assay-context: SaOS-2 split-luciferase Mdm2/MdmX complementation, at 8 µM, active compounds read high
Among all 330,000 compounds or so, about 10,000 (3%) were called active. This excerpt belongs to a sample that is enriched for actives.

| molecule | inhibition, % |
| --- | --- |
| CCOc1cc(-c2cc(-c3ccc(NC(C)=O)cc3)nc(N)c2C#N)ccc1O | 62.3 |
| O=C(N[C@@H](Cc1ccccc1)C(=O)OCc1ccccc1)c1nc[nH]c1C(=O)NC1CCNCC1 | 20.5 |
| CCCC1C(=O)N2C(N(C)C)=Nc3ccc(C)cc3N2C1=O (centres undefined) | 15.1 |
| CC(=O)N1CCc2c(sc(NC(=O)CCS(=O)(=O)c3ccccc3)c2C#N)C1 | 86.2 |
| CC(=O)N1CCc2c(sc(NC(=O)CCS(=O)(=O)c3ccc(C)cc3)c2C(N)=O)C1 | 25.4 |
| CC(=NCc1ccco1)c1c(C(F)(F)F)[nH]n(-c2nc3ccccc3s2)c1=O | 0.099 |
| COc1cc(C(=O)NCc2nnc(SCC(=O)Nc3nc4ccc(C)cc4s3)o2)cc(OC)c1OC | 53.5 |
| CC(C)(C)OC(=O)N1CCC(NC(=O)c2[nH]cnc2C(=O)N[C@@H](Cc2ccccc2)C(=O)OCc2ccccc2)CC1 | 65.6 |
| CCOC(=O)CC(=O)CSc1nc(-c2ccccc2)cc(-c2ccc(Cl)cc2)c1C#N | 17 |
